For each record, write down the corresponding IC50.
- Measurement Target: IDO (Homo sapiens)
- Sequence (P14902 whole entry): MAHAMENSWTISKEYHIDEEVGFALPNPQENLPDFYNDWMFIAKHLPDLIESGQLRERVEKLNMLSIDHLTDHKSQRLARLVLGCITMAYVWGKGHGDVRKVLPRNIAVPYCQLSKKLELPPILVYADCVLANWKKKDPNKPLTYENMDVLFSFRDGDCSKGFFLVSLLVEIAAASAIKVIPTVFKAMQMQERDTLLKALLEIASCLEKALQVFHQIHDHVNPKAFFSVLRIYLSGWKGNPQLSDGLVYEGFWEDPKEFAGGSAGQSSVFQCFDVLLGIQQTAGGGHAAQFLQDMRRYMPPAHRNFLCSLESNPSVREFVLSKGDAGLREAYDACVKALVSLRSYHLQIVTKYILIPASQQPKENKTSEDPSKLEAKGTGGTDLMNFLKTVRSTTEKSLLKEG
- Assay Procedure: hIDO biochemical coupled assay
- Condition Summary: 45 μM L-tryptophan, 17 minutes, room temperature; read-out: hIDO biochemical assay pIC50 (converted)

Hi! Can you tell me IC50 for each of these compounds?
1. CC(=O)N1CCN(c2cc(Cl)cc3c(N)noc23)CC1(C)C
2. CC(=O)N1CCN(c2cccc3[nH]ncc23)CC1(C)C
3. CC(=O)N1CCN(c2cccc3[nH]ncc23)CC1
4. CS(=O)(=O)N1CCOC2(CCN(c3cc(Cl)cc4[nH]ncc34)CC2)C1
5. OC(Cc1ccccc1)c1cc(Cl)cc2[nH]ncc12 (stereo not shown)
6. CC(C)NC(=O)c1cc(Cl)cc2[nH]ncc12
7. CC(C)c1cc(C2CCN(S(C)(=O)=O)CC2)c2cn[nH]c2c1

1: > 100 µM; 2: 32.4 to 100 µM; 3: > 100 µM; 4: > 100 µM; 5: 3.24 to 31.6 µM; 6: > 100 µM; 7: 3.24 to 31.6 µM

Hi! Can you tell me IC50 for each of these compounds?
1. CCc1cc(C2CCN(S(C)(=O)=O)CC2)c2cn[nH]c2c1
2. O=C(c1cc(Cl)cc2[nH]ncc12)N1CCCCC1
3. CS(=O)(=O)NCCOc1cccc2[nH]ncc12

["3.24 to 31.6 µM", "> 100 µM", "> 100 µM"]

----------
- Measurement Target: TDO (Homo sapiens, UniProt P48775)
- Sequence (P48775 whole entry): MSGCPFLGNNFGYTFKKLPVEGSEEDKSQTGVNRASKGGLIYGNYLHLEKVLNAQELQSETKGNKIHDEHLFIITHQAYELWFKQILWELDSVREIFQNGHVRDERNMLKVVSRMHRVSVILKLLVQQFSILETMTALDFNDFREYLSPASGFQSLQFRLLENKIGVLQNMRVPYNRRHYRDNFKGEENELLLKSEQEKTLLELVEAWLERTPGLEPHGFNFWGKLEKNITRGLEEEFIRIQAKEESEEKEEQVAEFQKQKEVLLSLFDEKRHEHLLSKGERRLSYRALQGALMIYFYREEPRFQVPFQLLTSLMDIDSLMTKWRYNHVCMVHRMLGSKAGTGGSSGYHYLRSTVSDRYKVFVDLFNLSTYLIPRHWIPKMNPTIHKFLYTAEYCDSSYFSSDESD
- Assay Procedure: A172 kynurenine cell-based assay
- Parameters: This assay utilised cancer cells which expressed either TDO or IDO; endogenous in cells; host or cells: A172 (human glioblastoma)
- Condition Summary: A172 human glioblastoma cells, 48 hours, 500 μM L-tryptophan; read-out: A172 Kynurenine cell based assay pIC50 (converted)
- Description: Exemplary compounds of the invention were prepared, and tested to determine their effect as TDO and/or IDO inhibitors. […] This coupled enzyme system allowed conversion of N-formylkynurenine produced by TDO or IDO activity to kynurenine which was then quantified by fluorescence following addition of Erhlich's Reagent The protocols for these are set out below. […]
Property Measured: IC50

Solved entries (count: 4):
- Compound: "Clc1cc(N2CCc3ccncc3C2)c2cn[nH]c2c1"
  Measurement Target: "TDO (Homo sapiens, UniProt P48775)"
  IC50: "< 3.16 µM"
- Compound: "Clc1cc(N2CCc3ccccc3C2)c2cn[nH]c2c1"
  Measurement Target: "TDO (Homo sapiens, UniProt P48775)"
  IC50: "< 3.16 µM"
- Compound: "Clc1cc(N2CCN(c3ncccn3)CC2)c2cn[nH]c2c1"
  Measurement Target: "TDO (Homo sapiens, UniProt P48775)"
  IC50: "< 3.16 µM"
- Compound: "CC(=O)N1CCN(c2cccc3[nH]ncc23)CC1C (centres unmarked)"
  Measurement Target: "TDO (Homo sapiens, UniProt P48775)"
  IC50: "3.24 to 31.6 µM"

# input compound: `c1ccc(CNc2cccc3[nH]ncc23)cc1` ; wanted: its IC50
32.4 to 100 µM

----------
- Measurement Target: IDO (Homo sapiens)
- Assay Procedure: SKOV3 kynurenine cell-based assay (IDO induced by IFN-γ)
- Parameters: IDO expression was induced in the SKOV3 cells by the addition of 500 ng/ml IFN-γ; endogenous in cells; host or cells: SKOV3 (human ovarian adenocarcinoma), induced with IFN-γ
- Condition Summary: SKOV3 human ovarian adenocarcinoma cells, 500 ng/ml IFN-γ, 48 hours, 500 μM L-tryptophan; read-out: SKOV3 Kynurenine cell based assay pIC50 (converted)
For each record, write down the corresponding IC50.

Solved entries (count: 5):
- Compound: "CCc1cc(N2CCN(S(C)(=O)=O)CC2)c2cn[nH]c2c1 [Compound 158]"
  Result: "3.24 to 31.6 µM"
- Compound: "OCCNc1cc(Cl)cc2[nH]ncc12 [Compound 142]"
  Result: "> 100 µM"
- Compound: "C[C@@H]1CN(c2cc(Cl)cc3[nH]ncc23)C[C@@H](C)N1S(C)(=O)=O [Compound 102]"
  Result: "3.24 to 31.6 µM"
- Compound: "CC(=O)N1CC=C(c2cc(Br)cc3[nH]ncc23)CC1 [Compound 128]"
  Result: "3.24 to 31.6 µM"
- Compound: "CC(=O)N(C)C1CCN(c2cc(Cl)cc3[nH]ncc23)C1 (stereo not drawn) [Compound 278]"
  Result: "3.24 to 31.6 µM"

Hi! Can you tell me IC50 for each of these compounds?
1. CN(C1CCN(c2cc(Cl)cc3[nH]ncc23)C1)S(C)(=O)=O (stereo not drawn) [Compound 243]
2. Cc1nc2c(o1)CN(c1cc(C(F)(F)F)cc3[nH]ncc13)CC2(C)C [Compound 434]
3. CNC(=O)C1(C)CCN(c2cc(Cl)cc3[nH]ncc23)CC1 [Compound 382]
4. CC1(C)CCC(O)(c2cc(Cl)cc3[nH]ncc23)CC1 [Compound 427]

3.24 to 31.6 µM
> 100 µM
3.24 to 31.6 µM
> 100 µM
